# target-system: T1, human TROP2-his protein (human, UniProt P09758 27-274)
# T1 construct: Biotin-labelled in the ELISAs, unlabelled analyte in Biacore; also called biotin-labeled human TROP2-his protein; biotin human Trop2-his
# T1 sequence: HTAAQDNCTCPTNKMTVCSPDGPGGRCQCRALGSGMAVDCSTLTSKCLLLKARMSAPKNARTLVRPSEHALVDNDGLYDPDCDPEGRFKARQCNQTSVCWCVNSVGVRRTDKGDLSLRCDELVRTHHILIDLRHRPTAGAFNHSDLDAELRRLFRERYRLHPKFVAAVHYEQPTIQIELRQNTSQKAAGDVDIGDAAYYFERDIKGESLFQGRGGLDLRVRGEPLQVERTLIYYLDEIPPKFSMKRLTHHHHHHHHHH
# test: SPR Biacore T200, supernatant antibody captured on anti-human IgG CM5 chip, 40 nM human TROP2-his
Hi there, I'd appreciate the recorded kon for every entry that follows.
Give your result in M⁻¹ s⁻¹ as a bare value.

For huA1E4F7D4-V16 (antibody, human IgG1, kappa, V domains shown, Positions of the X residues are given in the claims; also called humanized antibody huA1E4F7D4-V16) VH: QVQLVQSGAEVKKPGASVKVSCKASGYSFTTHWIHWVRQAPGQGLEWIGTIFPSNAYAVYNQKFRDRATMTADTSISTAYIELSRLRSDDTAVYYCARASYFDYWGQGTTVTVSS VL: EIVLTQSPATLSLSPGERATLSCRASQNIGTSIHWFQQKPGGAPRLLIKYASESISGIPSRFSGSGSGTDFTLTISSLEPEDFAVYYCQHSHSWPFTFGQGTKLEIKR , what is its reported kon?
1.28e+06

Can you check huA1E4F7D4-V13 (antibody, human IgG1, kappa, V domains shown, Positions of the X residues are given in the claims; Tested as cell supernatant) VH: QVQLVQSGAEVKKPGASVKVSCKASGYTFTTHWIHWVRQAPGQGLEWIGTIFPSNAYAVYNQKFRDRATMTADRSISTAYIELSRLRSDDTAVYYCARASYFDYWGQGTTVTVSS VL: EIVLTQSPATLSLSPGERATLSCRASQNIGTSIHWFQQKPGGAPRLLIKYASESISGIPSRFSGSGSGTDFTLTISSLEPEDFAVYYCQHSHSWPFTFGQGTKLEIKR next?
898000

Can you check huA1E4F7D4-V17 (antibody, human IgG1, kappa, V domains shown, Positions of the X residues are given in the claims; Tested as cell supernatant) VH: QVQLVQSGAEVKKPGASVKVSCKASGYSFTTHWIHWVRQAPGQGLEWIGTIFPSNAYAVYNQKFRDRATMTADRSISTAYIELSRLRSDDTAVYYCARASYFDYWGQGTTVTVSS VL: EIVLTQSPATLSLSPGERATLSCRASQNIGTSIHWFQQKPGGSPRLLIYYASESISGIPSRFSGSGSGTDFTLTISSLEPEDFAVYYCQHSHSWPFTFGQGTKLEIKR next?
1.2e+06
